Target: System xc^− transporter (SXc^−) (Homo sapiens)
Sequence (Q9UPY5 1-501): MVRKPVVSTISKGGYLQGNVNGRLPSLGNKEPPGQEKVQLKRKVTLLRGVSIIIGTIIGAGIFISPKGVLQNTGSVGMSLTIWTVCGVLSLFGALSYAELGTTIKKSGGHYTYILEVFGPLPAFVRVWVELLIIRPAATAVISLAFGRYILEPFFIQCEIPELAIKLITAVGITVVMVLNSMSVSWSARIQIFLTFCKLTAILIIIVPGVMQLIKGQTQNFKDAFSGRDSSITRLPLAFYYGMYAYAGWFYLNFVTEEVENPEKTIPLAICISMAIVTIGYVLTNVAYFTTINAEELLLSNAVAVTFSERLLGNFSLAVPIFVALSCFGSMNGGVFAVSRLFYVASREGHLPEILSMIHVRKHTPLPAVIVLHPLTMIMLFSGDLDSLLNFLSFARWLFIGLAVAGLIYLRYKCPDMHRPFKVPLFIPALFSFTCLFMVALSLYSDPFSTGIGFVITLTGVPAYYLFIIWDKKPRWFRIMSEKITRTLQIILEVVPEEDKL
Sequence (P08195 1-529 partner): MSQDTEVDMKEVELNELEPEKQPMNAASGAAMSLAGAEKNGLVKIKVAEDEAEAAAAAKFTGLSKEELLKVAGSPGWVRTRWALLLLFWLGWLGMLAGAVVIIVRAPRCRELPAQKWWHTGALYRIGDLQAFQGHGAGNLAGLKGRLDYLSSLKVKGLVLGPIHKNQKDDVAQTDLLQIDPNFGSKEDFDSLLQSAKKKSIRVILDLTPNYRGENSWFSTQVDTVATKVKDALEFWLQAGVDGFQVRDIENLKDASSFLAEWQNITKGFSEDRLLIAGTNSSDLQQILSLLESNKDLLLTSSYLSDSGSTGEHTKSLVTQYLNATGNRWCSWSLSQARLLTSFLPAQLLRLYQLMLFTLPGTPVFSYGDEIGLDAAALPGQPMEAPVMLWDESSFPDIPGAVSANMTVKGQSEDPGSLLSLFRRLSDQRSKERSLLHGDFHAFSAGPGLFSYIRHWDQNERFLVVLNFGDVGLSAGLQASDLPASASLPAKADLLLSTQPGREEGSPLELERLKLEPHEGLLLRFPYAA
Type: cell-based
Settings: initial screen at a single concentration (250 μM or 500 μM), SNB-19 cells

>  <SMILES TEXT>
N[C@@H](Cc1c(C(=O)O)noc1COCc1ccccc1)C(=O)O

>  <inhibitory activity at SXc^− (in words)>
markedly inhibit

$$$$
>  <SMILES TEXT>
N[C@@H](Cc1c(C(=O)O)noc1CCc1cccc2ccccc12)C(=O)O

>  <inhibitory activity at SXc^− (in words)>
markedly inhibit

$$$$
>  <SMILES TEXT>
N[C@@H](Cc1c(C(=O)O)noc1CCc1ccccc1)C(=O)O

>  <inhibitory activity at SXc^− (in words)>
markedly inhibit

$$$$
